molecular target: Serine/threonine-protein kinase mTOR (Homo sapiens, UniProt P42345); assay: Inhibition of human recombinant mTOR expressed in insect cells using 4E-BP1 substrate after 30 mins by fluorescence resonance energy transfer assay
experimental_endpoint: Ki (nM)
Respond with the bare value in nM.

Documented Ki of "CCNC(=O)Nc1ccc(-c2nc(N3CCOCC3)c3sc(C(C)(C)O)cc3n2)cc1" : 3

* * *

assay: Oral bioavailability in mouse at 5 mg/kg; format: ADME, organism-based; settings: in vivo
experimental_endpoint: bioavailability (%)
Respond with the bare value in %.

Below, 2 compounds whose answers are already recorded.
CCNC(=O)Nc1ccc(-c2nc(N3CCOC[C@@H]3C)c3c(n2)C(C)(C)OC3)cc1 :: 140
CCNC(=O)Nc1ccc(-c2nc(N3CCOC[C@@H]3C)c3c(n2)[C@](C)(CCN(C)C)OC3)cc1 :: 6

Documented bioavailability of "C[C@H]1COCCN1c1nc(-c2ccc(Nc3cccc(=O)[nH]3)cc2)nc2c1COC2(C)C" : 7

Documented bioavailability of "C[C@H]1COCCN1c1nc(-c2ccc(NC(=O)NCCO)cc2)nc2c1COC2(C)C" : 22

* * *

experiment: Plasma protein binding in mouse; assay type: ADME, cell-free; conditions: read-out: PPB (converted)
Listed compounds paired with reported fraction unbound

CCNC(=O)Nc1ccc(-c2nc(N3CCOC[C@@H]3C)c3c(n2)[C@](C)(CC(C)(C)O)OC3)cc1 :: 0.09
CCNC(=O)Nc1ccc(-c2nc(N3CCOC[C@@H]3C)c3c(n2)C(C)(C)OC3)cc1 :: 0.05
CCNC(=O)Nc1ccc(-c2nc(N3CCOCC3)c3c(n2)C(C)(C)OC3=O)cc1 :: 0.02
CCNC(=O)Nc1ccc(-c2nc(N3CCOC[C@@H]3C)c3c(n2)[C@](C)(CCO)OC3)cc1 :: 0.06
CCNC(=O)Nc1ccc(-c2nc(N3CCOC[C@@H]3C)c3c(n2)[C@](C)(CCN(C)C)OC3)cc1 :: 0.22

Documented fraction unbound of "C[C@H]1COCCN1c1nc(-c2ccc(Nc3cccc(=O)[nH]3)cc2)nc2c1COC2(C)C" : 0.03

Documented fraction unbound of "CCNC(=O)Nc1ccc(-c2nc(N3CCOCC3)c3c(n2)[C@](C)(CCO)OC3)cc1" : 0.17

Documented fraction unbound of "C[C@H]1COCCN1c1nc(-c2ccc(NC(=O)NCCO)cc2)nc2c1COC2(C)C" : 0.19

* * *

Listed molecules paired with reported Vd
assay: Volume of distribution at steady state in mouse at 1 mg/kg, iv; type: ADME, organism-based; parameters: dose 1 mg/kg, route intravenous; conditions: in vivo, read-out: Vdss
Respond with the bare value in L/kg.

Below, 5 molecules whose answers are already recorded.
CCNC(=O)Nc1ccc(-c2nc(N3CCOCC3)c3c(n2)[C@](C)(CC(C)(C)O)OC3)cc1 :: 1
C[C@H]1COCCN1c1nc(-c2ccc(NC(=O)NCCO)cc2)nc2c1COC2(C)C :: 1.5
CCNC(=O)Nc1ccc(-c2nc(N3CCOC[C@@H]3C)c3c(n2)[C@@](C)(CC(C)(C)O)OC3)cc1 :: 2.7
CCNC(=O)Nc1ccc(-c2nc(N3CCOC[C@@H]3C)c3c(n2)[C@](C)(CC(C)(C)O)OC3)cc1 :: 1.3
C[C@H]1COCCN1c1nc(-c2ccc(Nc3cccc(=O)[nH]3)cc2)nc2c1COC2(C)C :: 1.9

Documented Vd of "CCNC(=O)Nc1ccc(-c2nc(N3CCOC[C@@H]3C)c3c(n2)[C@@](C)(CCO)OC3)cc1" : 2.4

Documented Vd of "CCNC(=O)Nc1ccc(-c2nc(N3CCOC[C@@H]3C)c3c(n2)[C@](C)(CCN(C)C)OC3)cc1" : 2.6

Documented Vd of "CCNC(=O)Nc1ccc(-c2nc(N3CCOC[C@@H]3C)c3c(n2)C(C)(C)OC3)cc1" : 1.4

Documented Vd of "CCNC(=O)Nc1ccc(-c2nc(N3CCOCC3)c3c(n2)[C@](C)(CCO)OC3)cc1" : 1.5

* * *

test: Plasma protein binding in rat; format: ADME, cell-free; conditions: read-out: PPB (converted)
experimental_endpoint: fraction unbound

Below, 2 molecules whose answers are already recorded.
CCNC(=O)Nc1ccc(-c2nc(N3CCOCC3)c3c(n2)C(C)(C)OC3=O)cc1 :: 0.05
CCNC(=O)Nc1ccc(-c2nc(N3CCOCC3)c3c(n2)[C@](C)(CC(C)(C)O)OC3)cc1 :: 0.21

Query molecule follows.
Documented fraction unbound of "C[C@H]1COCCN1c1nc(-c2ccc(NC(=O)NCCO)cc2)nc2c1COC2(C)C" : 0.3

* * *

system: MCF7; assay: Antiproliferative activity against human MCF7 cells expressing neo/Her2 after 3 days by CellTiter-Glo luminescent cell viability assay; conditions: MCF7, 72 h
Listed molecules paired with reported pIC50
On this scale, pIC50 is minus log10 of a concentration expressed in M (mol/L).

C[C@H]1COCCN1c1nc(-c2ccc(NC(=O)NC[C@@H](O)CO)cc2)nc2c1COC2(C)C :: 5.72

Documented pIC50 of "CCNC(=O)Nc1ccc(-c2nc(N3CCOC[C@@H]3C)c3c(n2)[C@](C)(CO)OC3)cc1" : 6.72

Documented pIC50 of "CCNC(=O)Nc1ccc(-c2nc(N3CCOC[C@@H]3C)c3c(n2)[C@@](C)(CC(C)(C)O)OC3)cc1" : 7.54

* * *

Listed compounds paired with reported AUC
test system: Mus musculus; test: AUC in mouse at 5 mg/kg, po; assay type: ADME, organism-based, Plasma; set-up: dose 5 mg/kg, route oral; conditions: in vivo
Respond with the bare value in µM·h.

Documented AUC of "CCNC(=O)Nc1ccc(-c2nc(N3CCOC[C@@H]3C)c3c(n2)[C@](C)(CC(C)(C)O)OC3)cc1" : 0.63

Documented AUC of "CCNC(=O)Nc1ccc(-c2nc(N3CCOC[C@@H]3C)c3c(n2)[C@@](C)(CCO)OC3)cc1" : 0.43

Documented AUC of "CCNC(=O)Nc1ccc(-c2nc(N3CCOCC3)c3c(n2)[C@](C)(CCO)OC3)cc1" : 0.96

Documented AUC of "CCNC(=O)Nc1ccc(-c2nc(N3CCOCC3)c3c(n2)C(C)(C)OC3=O)cc1" : 1.5

* * *

system: MCF7; assay: Antiproliferative activity against human MCF7 cells expressing neo/Her2 after 3 days by CellTiter-Glo luminescent cell viability assay; settings: MCF7, 72 h
experimental_endpoint: IC50 (nM)
Respond with the bare value in nM.

Below, 4 compounds whose answers are already recorded.
CCNC(=O)Nc1ccc(-c2nc(N3CCOC[C@@H]3C)c3c(n2)C(C)(C)OC3=O)cc1 :: 220
CCNC(=O)Nc1ccc(-c2nc(N3CCOC[C@@H]3C)c3c(n2)C(C)(C)OC3)cc1 :: 52
CCNC(=O)Nc1ccc(-c2nc(N3CCOC[C@@H]3C)c3c(n2)[C@@](C)(CO)OC3)cc1 :: 530
CCNC(=O)Nc1ccc(-c2nc(N3CCOC[C@@H]3C)c3c(n2)[C@](C)(CCN(C)C)OC3)cc1 :: 1100

Documented IC50 of "CCNC(=O)Nc1ccc(-c2nc(N3CCOCC3)c3c(n2)[C@](C)(CCO)OC3)cc1" : 48

Documented IC50 of "CCNC(=O)Nc1ccc(-c2nc(N3CCOC[C@@H]3C)c3c(n2)[C@@](C)(CC2CC2)OC3)cc1" : 95

Documented IC50 of "CCNC(=O)Nc1ccc(-c2nc(N3CCOC[C@@H]3C)c3c(n2)[C@@](C)(CCOC)OC3)cc1" : 1200

Documented IC50 of "CCNC(=O)Nc1ccc(-c2nc(N3CCOC[C@@H]3C)c3c(n2)[C@@](C)(CCC#N)OC3)cc1" : 100

Documented IC50 of "CCNC(=O)Nc1ccc(-c2nc(N3CCOCC3)c3c(n2)C(C)(C)OC3=O)cc1" : 310

* * *

test: Half life in mouse at 1 mg/kg, iv; assay type: ADME, organism-based; design: dose 1 mg/kg, route intravenous; conditions: in vivo
experimental_endpoint: half-life (min)
Respond with the bare value in min.

CCNC(=O)Nc1ccc(-c2nc(N3CCOC[C@@H]3C)c3c(n2)[C@](C)(CCO)OC3)cc1 :: 19.8
CCNC(=O)Nc1ccc(-c2nc(N3CCOCC3)c3c(n2)[C@](C)(CCO)OC3)cc1 :: 42.6

Query molecule follows.
Documented half-life of "CCNC(=O)Nc1ccc(-c2nc(N3CCOC[C@@H]3C)c3c(n2)[C@](C)(CC(C)(C)O)OC3)cc1" : 66

* * *

test system: Mus musculus; experiment: AUC in mouse at 5 mg/kg, po; assay type: ADME, organism-based, Plasma; design: dose 5 mg/kg, route oral; details: in vivo
Listed compounds paired with reported AUC
Give the figure together with its unit, number first.

Below, 3 compounds whose answers are already recorded.
CCNC(=O)Nc1ccc(-c2nc(N3CCOC[C@@H]3C)c3c(n2)[C@@](C)(CC(C)(C)O)OC3)cc1 :: 0.65 µM·h
CCNC(=O)Nc1ccc(-c2nc(N3CCOC[C@@H]3C)c3c(n2)[C@](C)(CCO)OC3)cc1 :: 0.59 µM·h
CCNC(=O)Nc1ccc(-c2nc(N3CCOCC3)c3c(n2)[C@](C)(CC(C)(C)O)OC3)cc1 :: 0.66 µM·h

Documented AUC of "CCNC(=O)Nc1ccc(-c2nc(N3C[C@H]4CC[C@@H](C3)O4)c3c(n2)[C@](C)(CCO)OC3)cc1" : 0.78 µM·h
